Each item that follows carries a reported drug sensitivity score.
Tested on: U2OS
Assay: drug sensitivity score (DSS) for viability; higher = more toxic; extreme values may be limits of the assay
Details: 72 h
When you answer, write just the number.

The cases that follow already have their drug sensitivity score on record.
>  <smiles_data>
COc1cc2ncnc(Nc3ccc(Cl)cc3F)c2cc1OC

>  <val>
0.7

$$$$
>  <smiles_data>
CCOc1ccn(-c2ccc(F)cc2)c(=O)c1C(=O)Nc1ccc(Oc2ccnc(N)c2Cl)c(F)c1

>  <val>
0

$$$$
>  <smiles_data>
CCCCCCNC(=O)Nc1ccc(S(=O)(=O)Nc2ccc(CCNC[C@H](O)COc3ccc(O)cc3)cc2)cc1

>  <val>
0

$$$$
>  <smiles_data>
CC(C)[C@H]1c2ccc(F)cc2CC[C@@]1(CCN(C)CCCc1nc2ccccc2[nH]1)OC(=O)C1CC1

>  <val>
5.8

$$$$

Inquiry: # lookup: drug sensitivity score of "O=C(NCC(=O)N1CCCC1)Nc1ccc2cnccc2c1"
Reply text: 0

Inquiry: Sample "CN1[C@@H]2CC[C@H]1C[C@@H](OC(=O)c1c[nH]c3ccccc13)C2" — what was its drug sensitivity score?
Reply text: 0

Inquiry: Looking for the measured drug sensitivity score of "Cc1c(N)nc([C@H](CC(N)=O)NC[C@H](N)C(N)=O)nc1C(=O)N[C@H](C(=O)N[C@H](C)[C@@H](O)[C@H](C)C(=O)N[C@H](C(=O)NCCc1nc(-c2nc(C(=O)NCCCNCCCCN)cs2)cs1)[C@@H](C)O)[C@@H](O[C@@H]1O[C@@H](CO)[C@@H](O)[C@H](O)[C@@H]1O[C@@H]1O[C@H](CO)[C@@H](O)[C@H](OC(N)=O)[C@@H]1O)c1cnc[nH]1" , can you help?
Reply text: 3.4
